- study.system: UniProt P18031
- Sequence (P18031 whole entry): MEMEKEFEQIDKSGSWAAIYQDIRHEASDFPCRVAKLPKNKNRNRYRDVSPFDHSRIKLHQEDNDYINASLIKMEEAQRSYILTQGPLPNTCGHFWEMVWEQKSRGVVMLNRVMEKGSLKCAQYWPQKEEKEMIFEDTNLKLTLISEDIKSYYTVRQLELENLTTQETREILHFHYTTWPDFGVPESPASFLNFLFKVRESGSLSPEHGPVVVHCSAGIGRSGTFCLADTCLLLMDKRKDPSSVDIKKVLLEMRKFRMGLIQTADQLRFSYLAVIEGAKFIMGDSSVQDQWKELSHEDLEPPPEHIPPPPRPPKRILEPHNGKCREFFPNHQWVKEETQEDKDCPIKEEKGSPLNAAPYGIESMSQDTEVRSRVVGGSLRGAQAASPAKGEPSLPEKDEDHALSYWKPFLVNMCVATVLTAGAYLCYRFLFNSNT
- measurement.description: Inhibition of PTP1B in human HepG2 cells assessed as increase in phosphorylation of IRbeta at Tyr1162/1163 residues at 50 uM after 30 mins by Western blot method
- Format: cell-based
Activity calls are given as the source filed them. The rule behind the calls is not given here.
Bench note: report the call from active, inactive

Could you please tell me the result logged for `O=C(O)c1ccc(CN2C(=O)/C(=C/c3ccc(Oc4ccccc4)cc3)SC2=S)cc1` in this assay?
inactive

Could you please tell me the result logged for `O=C(O)c1ccc(CN2C(=O)/C(=C/c3cccc(OCc4ccccc4)c3)SC2=S)cc1` in this assay?
inactive

Could you please tell me the result logged for `O=C(O)c1ccc(CN2C(=O)/C(=C/c3ccc(OCc4ccccc4)cc3)SC2=S)cc1` in this assay?
inactive

Could you please tell me the result logged for `O=C(O)c1ccc(CN2C(=O)/C(=C/c3cccc(Oc4ccccc4)c3)S/C2=N\c2ccc(F)cc2)cc1` in this assay?
active
